Data origin: paper PMC7367873

# Tested on: GFP-14-3-3β and its binding proteins
# Test name: GFP-14-3-3β co-IP with LC-MS/MS label-free quantification, untreated versus PP1c-treated
# Parameters: species or system human
# Assay setup: PP1 vs untreated; label-free quantification
Quantity: Difference (log2), PP1 vs untreated
Note: unit log2 is implicit; provide only the numeric part.

Q: // returns reported Difference (log2), PP1 vs untreated for input HACD3 (protein, UniProt Q9P035 1-362, looked up) Very-long-chain …: MENQVLTPHVYWAQRHRELYLRVELSDVQNPAISITENVLHFKAQGHGAKGDNVYEFHLEFLDLVKPEPVYKLTQRQVNITVQKKVSQWWERLTKQEKRPLFLAPDFDRWLDESDAEMELRAKEEERLNKLRLESEGSPETLTNLRKGYLFMYNLVQFLGFSWIFVNLTVRFCILGKESFYDTFHTVADMMYFCQMLAVVETINAAIGVTTSPVLPSLIQLLGRNFILFIIFGTMEEMQNKAVVFFVFYLWSAIEIFRYSFYMLTCIDMDWKVLTWLRYTLWIPLYPLGCLAEAVSVIQSIPIFNETGRFSFTLPYPVKIKVRFSFFLQIYLIMIFLGLYINFRHLYKQRRRRYGQKKKKIH
Ans: 0.9389
